For each entry below, report its MIC value.
Supply the numeric figure in µg/mL, leaving out any unit text.

# value lookup — system Microsporum canis ATCC 36299, readout MIC, item Cc1ccc(C2=CCCN([C@H](C)[C@](O)(Cn3cncn3)c3ccc(F)cc3F)C2)nc1C 10

# value lookup — system Microsporum canis ATCC 36299, readout MIC, item C[C@@H](N1CCCC(c2ccccn2)C1)[C@](O)(Cn1cncn1)c1ccc(F)cc1F (some centres unmarked) 100

# value lookup — system Microsporum canis ATCC 36299, readout MIC, item C[C@@H](Oc1cc(-c2ccccn2)ccn1)[C@](O)(Cn1cncn1)c1ccc(F)cc1F 10

# value lookup — system Microsporum canis ATCC 36299, readout MIC, item C[C@@H](N1CC=C(c2ccccn2)CC1)[C@](O)(Cn1cncn1)c1ccc(F)cc1F 0.03

# value lookup — system Microsporum canis ATCC 36299, readout MIC, item C[C@@H](N1CCC(c2ccccn2)CC1)[C@](O)(Cn1cncn1)c1ccc(F)cc1F 0.3
